Answer each item with its documented Kb.
Biological target: UniProt P33033
Sequence (P33033 whole entry): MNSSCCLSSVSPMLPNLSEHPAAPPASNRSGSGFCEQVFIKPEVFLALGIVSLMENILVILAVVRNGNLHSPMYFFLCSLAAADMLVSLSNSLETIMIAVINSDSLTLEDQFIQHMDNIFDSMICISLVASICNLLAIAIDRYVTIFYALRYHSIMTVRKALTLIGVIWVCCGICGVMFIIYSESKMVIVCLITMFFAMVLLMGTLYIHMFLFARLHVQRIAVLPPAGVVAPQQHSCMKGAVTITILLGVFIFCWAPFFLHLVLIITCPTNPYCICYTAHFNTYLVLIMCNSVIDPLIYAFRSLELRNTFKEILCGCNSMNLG
Assay: Antagonist Schild analysis against agonist MTII at mMC3R
Assay type: cell-based
Square brackets hold non-standard residues; d marks the D form. Peptide text beside a SMILES is read from it. * marks the point of attachment. Bip = N[C@@H](Cc1ccc(-c2ccccc2)cc1)C(=O)O; dBip = N[C@H](Cc1ccc(-c2ccccc2)cc1)C(=O)O; dPhe(4-I) = N[C@H](Cc1ccc(I)cc1)C(=O)O; Bta = N[C@@H](Cc1csc2ccccc12)C(=O)O; 4Pal = N[C@@H](Cc1ccncc1)C(=O)O; Octanoyl = CCCCCCCC(=O)*
Report the figure along with its unit, number first.

| Compound | Result |
| --- | --- |
| CC(=O)N[C@@H](Cc1c[nH]cn1)C(=O)N[C@H](Cc1ccc(I)cc1)C(=O)N[C@@H](CCCNC(=N)N)C(=O)N[C@@H](Cc1ccc(-c2ccccc2)cc1)C(N)=O [Peptide 29, Ac-His-(pI)DPhe-Arg-Bip-NH2] (Ac-H[dPhe(4-I)]R[Bip]-NH2) | 200 nM |
| CCCCCCCC(=O)N[C@@H](Cc1c[nH]cn1)C(=O)N[C@H](Cc1ccc(I)cc1)C(=O)N[C@@H](CCCNC(=N)N)C(=O)N[C@@H](Cc1c[nH]c2ccccc12)C(N)=O [Peptide 6, Octanoyl-His-(pI)DPhe-Arg-Trp-NH2] | 5.01 nM |
| CCCCCCCC(=O)N[C@@H](Cc1c[nH]cn1)C(=O)N[C@H](Cc1ccccc1)C(=O)N[C@@H](CCCNC(=N)N)C(=O)N[C@H](Cc1ccc(-c2ccccc2)cc1)C(N)=O [Peptide 8, Octanoyl-His-DPhe-Arg-DBip-NH2] (Octanoyl-H[dF]R[dBip]-NH2) | 316 nM |
| CC(=O)N[C@@H](Cc1ccncc1)C(=O)N[C@H](Cc1ccc(-c2ccccc2)cc1)C(=O)N[C@@H](CCCNC(=N)N)C(=O)N[C@@H](Cc1c[nH]c2ccccc12)C(N)=O [Peptide 22, Ac-4PAL-DBip-Arg-Trp-NH2] (Ac-[4Pal][dBip]RW-NH2) | 316 nM |
| CC(=O)N[C@@H](Cc1c[nH]cn1)C(=O)N[C@H](Cc1ccc(-c2ccccc2)cc1)C(=O)N[C@@H](CCCNC(=N)N)C(=O)N[C@@H](Cc1ccc(-c2ccccc2)cc1)C(N)=O [Peptide 33, Ac-His-DBip-Arg-Bip-NH2] (Ac-H[dBip]R[Bip]-NH2) | 501 nM |

// for each compound in input: emit Kb
1. CC(=O)N[C@@H](Cc1ccncc1)C(=O)N[C@H](Cc1ccc(I)cc1)C(=O)N[C@@H](CCCNC(=N)N)C(=O)N[C@@H](Cc1c[nH]c2ccccc12)C(N)=O [Peptide 16, Ac-4PAL-(pI)DPhe-Arg-Trp-NH2] (Ac-[4Pal][dPhe(4-I)]RW-NH2)
2. CCCCCCCC(=O)N[C@@H](Cc1c[nH]cn1)C(=O)N[C@H](Cc1ccc(-c2ccccc2)cc1)C(=O)N[C@@H](CCCNC(=N)N)C(=O)N[C@@H](Cc1c[nH]c2ccccc12)C(N)=O [Peptide 7, Octanoyl-His-DBip-Arg-Trp-NH2]
3. CC(=O)N[C@@H](Cc1c[nH]cn1)C(=O)N[C@H](Cc1ccc(I)cc1)C(=O)N[C@@H](CCCNC(=N)N)C(=O)N[C@@H](Cc1csc2ccccc12)C(N)=O [Peptide 30, Ac-His-(pI)DPhe-Arg-3Bal-NH2] (Ac-H[dPhe(4-I)]R[Bta]-NH2)

## Result
1: 79.4 nM; 2: 63.1 nM; 3: 39.8 nM

###

Target: mMC5R (Mus musculus)
Sequence (P41149 whole entry): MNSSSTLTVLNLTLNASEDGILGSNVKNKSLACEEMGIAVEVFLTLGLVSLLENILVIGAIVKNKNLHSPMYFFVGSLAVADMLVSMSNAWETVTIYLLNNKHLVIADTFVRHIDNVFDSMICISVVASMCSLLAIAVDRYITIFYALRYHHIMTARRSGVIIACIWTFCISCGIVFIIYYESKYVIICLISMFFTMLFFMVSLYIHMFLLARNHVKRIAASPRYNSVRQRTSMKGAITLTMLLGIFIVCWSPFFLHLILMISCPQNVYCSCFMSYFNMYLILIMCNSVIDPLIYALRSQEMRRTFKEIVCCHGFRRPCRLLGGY
Assay: CRE/β-galactosidase reporter gene bioassay, agonist activity at mMC5R
Assay type: cell-based
Conditions: fold difference in EC50 vs peptide 1; negative prefix = more potent than 1
Square brackets hold non-standard residues; d marks the D form. Peptide text beside a SMILES is read from it. * marks the point of attachment. dPhe(4-I) = N[C@H](Cc1ccc(I)cc1)C(=O)O; Tic = O=C(O)[C@@H]1Cc2ccccc2CN1; Octanoyl = CCCCCCCC(=O)*
Test readout: mMC5R Fold Diff.
Numbers only.

| Compound | mMC5R Fold Diff. |
| --- | --- |
| CCCCCCCC(=O)N[C@@H](Cc1c[nH]cn1)C(=O)N[C@H](Cc1ccccc1)C(=O)N[C@@H](CCCNC(=N)N)C(=O)N1Cc2ccccc2C[C@H]1C(N)=O [Peptide 4, Octanoyl-His-DPhe-Arg-Tic-NH2] (Octanoyl-H[dF]R[Tic]-NH2) | 50 |
| CC(=O)N[C@@H](Cc1c[nH]cn1)C(=O)N[C@H](Cc1ccc(I)cc1)C(=O)N[C@@H](CCCNC(=N)N)C(=O)N1Cc2ccccc2C[C@H]1C(N)=O [Peptide 31, Ac-His-(pI)DPhe-Arg-Tic-NH2] (Ac-H[dPhe(4-I)]R[Tic]-NH2) | 25 |

Answer for every listed entry: what is its mMC5R Fold Diff.? The entries follow.
1. CC(=O)N[C@@H](Cc1c[nH]c2ccccc12)C(=O)N[C@H](Cc1ccc(I)cc1)C(=O)N[C@@H](CCCNC(=N)N)C(=O)N[C@@H](Cc1c[nH]c2ccccc12)C(N)=O [Peptide 13, Ac-Trp-(pI)DPhe-Arg-Trp-NH2] (Ac-W[dPhe(4-I)]RW-NH2)
2. CCCCCCCC(=O)N[C@@H](Cc1c[nH]cn1)C(=O)N[C@H](Cc1ccccc1)C(=O)N[C@@H](CCCNC(=N)N)C(=O)N[C@@H](Cc1ccccc1)C(N)=O [Peptide 5, Octanoyl-His-DPhe-Arg-Phe-NH2] (Octanoyl-H[dF]RF-NH2)

## Result
1: 1905; 2: 5

###

Molecular target: mMC1R (Mus musculus, UniProt Q01727)
Sequence (Q01727 whole entry): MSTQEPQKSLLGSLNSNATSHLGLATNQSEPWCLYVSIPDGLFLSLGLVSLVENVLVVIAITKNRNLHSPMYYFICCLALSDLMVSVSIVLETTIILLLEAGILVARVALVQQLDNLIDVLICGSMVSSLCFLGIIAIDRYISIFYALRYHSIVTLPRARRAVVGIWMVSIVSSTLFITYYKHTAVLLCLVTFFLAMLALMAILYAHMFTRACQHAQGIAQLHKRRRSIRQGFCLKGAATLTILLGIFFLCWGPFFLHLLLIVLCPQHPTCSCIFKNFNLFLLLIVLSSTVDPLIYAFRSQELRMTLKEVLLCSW
Assay: CRE/β-galactosidase reporter gene bioassay, agonist activity at mMC1R
Assay type: cell-based
Conditions: fold difference in EC50 vs peptide 1; negative prefix = more potent than 1
Square brackets hold non-standard residues; d marks the D form. Peptide text beside a SMILES is read from it. dBip = N[C@H](Cc1ccc(-c2ccccc2)cc1)C(=O)O; dPhe(4-I) = N[C@H](Cc1ccc(I)cc1)C(=O)O; 3Pal = N[C@@H](Cc1cccnc1)C(=O)O; 4Pal = N[C@@H](Cc1ccncc1)C(=O)O
Test readout: mMC1R Fold Diff
Answers are plain numbers.

Go through the items and report each one's mMC1R Fold Diff.
1. CC(=O)N[C@@H](Cc1ccncc1)C(=O)N[C@H](Cc1ccc(-c2ccccc2)cc1)C(=O)N[C@@H](CCCNC(=N)N)C(=O)N[C@@H](Cc1c[nH]c2ccccc12)C(N)=O [Peptide 22, Ac-4PAL-DBip-Arg-Trp-NH2] (Ac-[4Pal][dBip]RW-NH2)
2. CC(=O)N[C@@H](Cc1ccccc1)C(=O)N[C@H](Cc1ccc(I)cc1)C(=O)N[C@@H](CCCNC(=N)N)C(=O)N[C@@H](Cc1c[nH]c2ccccc12)C(N)=O [Peptide 15, Ac-Phe-(pI)DPhe-Arg-Trp-NH2] (Ac-F[dPhe(4-I)]RW-NH2)

## Result
14
6

// each compound listed below needs its mMC1R Fold Diff
1. CC(=O)N[C@@H](Cc1cccnc1)C(=O)N[C@H](Cc1ccc(I)cc1)C(=O)N[C@@H](CCCNC(=N)N)C(=O)N[C@@H](Cc1c[nH]c2ccccc12)C(N)=O [Peptide 12, Ac-3PAL-(pI)DPhe-Arg-Trp-NH2] (Ac-[3Pal][dPhe(4-I)]RW-NH2)
2. CCCCCCCC(=O)N[C@@H](Cc1c[nH]cn1)C(=O)N[C@H](Cc1ccc(I)cc1)C(=O)N[C@@H](CCCNC(=N)N)C(=O)N[C@@H](Cc1c[nH]c2ccccc12)C(N)=O [Peptide 6, Octanoyl-His-(pI)DPhe-Arg-Trp-NH2]

## Result
1: 34; 2: −22

###

Target: mMC1R (Mus musculus, UniProt Q01727)
Test: CRE/β-galactosidase reporter gene bioassay, agonist activity at mMC1R
Assay type: cell-based
Conditions: mMC1R EC50, agonist; HEK-293 cells stably expressing receptor; ±SEM
pEC50: −log10 of the molar value. Square brackets hold non-standard residues; d marks the D form. Peptide text beside a SMILES is read from it. * marks the point of attachment. Bip = N[C@@H](Cc1ccc(-c2ccccc2)cc1)C(=O)O; dBip = N[C@H](Cc1ccc(-c2ccccc2)cc1)C(=O)O; dPhe(4-I) = N[C@H](Cc1ccc(I)cc1)C(=O)O; 2Nal = N[C@@H](Cc1ccc2ccccc2c1)C(=O)O; Bta = N[C@@H](Cc1csc2ccccc12)C(=O)O; 3Pal = N[C@@H](Cc1cccnc1)C(=O)O; 4Pal = N[C@@H](Cc1ccncc1)C(=O)O; Tic = O=C(O)[C@@H]1Cc2ccccc2CN1; Octanoyl = CCCCCCCC(=O)*
Record Criterion met whenever pEC50 is at 6 or higher; record Criterion not met when lower.

Take a look at these entries with their results.
| Compound | Test system | Qualitative label |
| --- | --- | --- |
| CC(=O)N[C@@H](Cc1cccnc1)C(=O)N[C@H](Cc1ccc(I)cc1)C(=O)N[C@@H](CCCNC(=N)N)C(=O)N[C@@H](Cc1c[nH]c2ccccc12)C(N)=O [Peptide 12, Ac-3PAL-(pI)DPhe-Arg-Trp-NH2] (Ac-[3Pal][dPhe(4-I)]RW-NH2) | mMC1R (Mus musculus, UniProt Q01727) | Criterion not met |
| CC(=O)N[C@@H](Cc1c[nH]cn1)C(=O)N[C@H](Cc1ccc(I)cc1)C(=O)N[C@@H](CCCNC(=N)N)C(=O)N1Cc2ccccc2C[C@H]1C(N)=O [Peptide 31, Ac-His-(pI)DPhe-Arg-Tic-NH2] (Ac-H[dPhe(4-I)]R[Tic]-NH2) | mMC1R (Mus musculus, UniProt Q01727) | Criterion met |
| CC(=O)N[C@@H](Cc1ccncc1)C(=O)N[C@H](Cc1ccc(-c2ccccc2)cc1)C(=O)N[C@@H](CCCNC(=N)N)C(=O)N[C@@H](Cc1c[nH]c2ccccc12)C(N)=O [Peptide 22, Ac-4PAL-DBip-Arg-Trp-NH2] (Ac-[4Pal][dBip]RW-NH2) | mMC1R (Mus musculus, UniProt Q01727) | Criterion not met |
| CC(=O)N[C@@H](Cc1cccnc1)C(=O)N[C@H](Cc1ccccc1)C(=O)N[C@@H](CCCNC(=N)N)C(=O)N[C@@H](Cc1ccc2ccccc2c1)C(N)=O [Peptide 23, Ac-3PAL-DPhe-Arg-Nal(2’)-NH2] (Ac-[3Pal][dF]R[2Nal]-NH2) | mMC1R (Mus musculus, UniProt Q01727) | Criterion not met |

## Task Test whether the compound CCCCCCCC(=O)N[C@@H](Cc1c[nH]cn1)C(=O)N[C@H](Cc1ccccc1)C(=O)N[C@@H](CCCNC(=N)N)C(=O)N[C@@H](Cc1csc2ccccc12)C(N)=O [Peptide 3, Octanoyl-His-DPhe-Arg-3Bal-NH2] (Octanoyl-H[dF]R[Bta]-NH2) records pEC50 of 6 or higher.
## Result Criterion met

## Task I'd appreciate it if you could say whether CC(=O)N[C@@H](Cc1ccccc1)C(=O)N[C@H](Cc1ccc(-c2ccccc2)cc1)C(=O)N[C@@H](CCCNC(=N)N)C(=O)N[C@@H](Cc1c[nH]c2ccccc12)C(N)=O [Peptide 20, Ac-Phe-DBip-Arg-Trp-NH2] (Ac-F[dBip]RW-NH2) has pEC50 at least equal to 6.
## Result Criterion not met

## Task Record CCCCCCCC(=O)N[C@@H](Cc1c[nH]cn1)C(=O)N[C@H](Cc1ccccc1)C(=O)N[C@@H](CCCNC(=N)N)C(=O)N[C@@H](Cc1ccccc1)C(N)=O [Peptide 5, Octanoyl-His-DPhe-Arg-Phe-NH2] (Octanoyl-H[dF]RF-NH2) ; criterion: pEC50 no lower than 6. Met?
## Result Criterion met

## Task Say whether CC(=O)N[C@@H](Cc1c[nH]cn1)C(=O)N[C@H](Cc1ccc(-c2ccccc2)cc1)C(=O)N[C@@H](CCCNC(=N)N)C(=O)N[C@@H](Cc1ccc(-c2ccccc2)cc1)C(N)=O [Peptide 33, Ac-His-DBip-Arg-Bip-NH2] (Ac-H[dBip]R[Bip]-NH2) shows pEC50 of 6 or more.
## Result Criterion met
